- Test system: hTNF-activated wt SFs
- Protocol Description: CCL5 and CCL20 ELISA on hTNF-activated wild type synovial fibroblasts
- Assay type: cell-based, mice
- Conditions Used: 10 ng/mL hTNF; compound 10 μM; 48 h
Consider the following molecules and their measured CCL20 WT, percentage of level in untreated cells readings.
Measured Metric: CCL20 WT, percentage of level in untreated cells (%)

Molecule	Result Value
COc1cc(N)c(Cl)cc1C(=O)NCC1(Nc2ccc(Cl)cc2)CCCCCC1 [Compound 53]	15
COc1cc(N)c(Cl)cc1C(=O)NCC1(c2ccc(Cl)cc2)CCCCCC1 [Compound 52]	15
COc1cc(N)c(Cl)cc1C(=O)NCC1(Nc2ccc(F)cc2Cl)CCCCCC1 [E]	5
COc1cc(N)c(Cl)cc1C(=O)NCC1(c2ccc(Cl)cc2)CCCCC1 [Compound 51]	14
